// values below are reported max response, negative = inhibition
Target: Serine/threonine-protein kinase PLK1 (Homo sapiens) (UniProt P53350)
Sequence (P53350 whole entry, looked up, the tested form may be a part): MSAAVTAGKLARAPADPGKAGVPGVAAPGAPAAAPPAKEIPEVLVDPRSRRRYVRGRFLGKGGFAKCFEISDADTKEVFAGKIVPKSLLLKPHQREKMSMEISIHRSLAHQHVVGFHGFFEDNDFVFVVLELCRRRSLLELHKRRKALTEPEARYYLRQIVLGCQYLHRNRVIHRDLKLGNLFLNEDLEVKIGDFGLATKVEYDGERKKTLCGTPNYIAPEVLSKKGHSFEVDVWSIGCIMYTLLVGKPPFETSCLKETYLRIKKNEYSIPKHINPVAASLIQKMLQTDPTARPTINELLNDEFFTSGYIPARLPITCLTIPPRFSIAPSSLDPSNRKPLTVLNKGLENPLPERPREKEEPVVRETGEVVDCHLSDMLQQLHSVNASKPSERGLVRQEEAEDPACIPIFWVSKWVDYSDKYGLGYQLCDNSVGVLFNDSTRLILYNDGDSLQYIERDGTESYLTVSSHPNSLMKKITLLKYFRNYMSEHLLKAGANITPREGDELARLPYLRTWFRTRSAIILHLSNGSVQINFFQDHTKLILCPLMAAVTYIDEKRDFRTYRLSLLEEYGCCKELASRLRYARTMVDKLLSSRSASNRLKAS
Test: qHTS for Inhibitors of PLK1-PDB (polo-like kinase 1 - polo-box domain): Primary Screen; also: series mostly up to about 57 µM; % is scaled to controls: 0 for no effect and ±100 for the full control effect; nearly all actives have a fitted effect of over 65% in size
Settings: Plk1 PBD binding of FITC phosphopeptide, fluorescence polarization
Source text: The polo-like kinase 1 (Plk1) is a member of a conserved subfamily of serine / threonine protein kinases that plays a pivotal roles in cell proliferation. It has a C-terminal non-catalytic region called the polo-box domain (PBD) that plays a crucial role in the subcellular localization of the Plk1. […] This project employed a fluorescence polarization (FP) assay using a FITC-conjugated phospho-9-mer (p-9-mer) peptide and purified human Plk1 PBD protein. […]
The campaign covered roughly 360,000 compounds. About 10,000 (2.8%) were called active. Inconclusive results (about 4%) are left out. Only a selection was taken, and actives are over-represented in it overall.
# value in %; strip the unit string

| molecule | reading |
| --- | --- |
| Cc1ccc(C(=O)Nc2c(C#N)c(C)c(C)n2Cc2ccccc2)cc1 | -3.45 |
| CC(c1ccco1)N(C(=O)Nc1ccccc1)C1CCCCC1 (stereo not drawn) | -2.64 |
| O=C1CCCc2nn(-c3ccccc3)nc21 | -8.07 |
| COc1cccc(NC(=O)c2nn(C34CC5CC(CC(C5)C3)C4)cc2[N+](=O)[O-])c1 | 1.45 |
| O=C(CSCc1ccc([N+](=O)[O-])cc1)NCCSCc1ccccc1 | -1.81 |

// next item, max response, negative = inhibition requested
Req: Recorded max response, negative = inhibition for Nc1ccc2nn(-c3ccc(Cl)cc3)nc2c1 , please?
Resp: -7.93

* * *

biological target: Serine/threonine-protein kinase PLK1 (Homo sapiens) (UniProt P53350); assay: qHTS for Inhibitors of PLK1-PDB (polo-like kinase 1 - polo-box domain): Primary Screen; details: Plk1 PBD binding of FITC phosphopeptide, fluorescence polarization; also: series mostly up to about 57 µM; % is scaled to controls: 0 for no effect and ±100 for the full control effect; nearly all actives have a fitted effect of over 65% in size
In all, about 360,000 compounds went through this assay and about 10,000 (2.8%) were called active. About 4% were inconclusive and are not listed. This excerpt belongs to a sample that is enriched for actives.
outcome_measure: max response, negative = inhibition

These solved cases illustrate the format of a correct answer.
| compound | outcome_measure | reading |
| --- | --- | --- |
| OC(c1ccc(F)cc1)c1ncc(-c2cccc(C(F)(F)F)c2)[nH]1 (stereo unspecified) | max response, negative = inhibition | 1.19% (inactive) |
| COC(=O)[C@]12CCCCC=C1N(Cc1ccco1)C(=O)[C@H](CC(=O)NCC1CCCCC1)C2 | max response, negative = inhibition | -3.48% (inactive) |
| NC(=O)C1(N2CCCC2)CCN(Cc2ccccc2)CC1 | max response, negative = inhibition | -7.37% (inactive) |

Req: Could you share what max response, negative = inhibition was measured for CCCCN1CC(N2CCN(Cc3cccc(C)c3)CC2)CS1(=O)=O (stereo unspecified) , tested on Serine/threonine-protein kinase PLK1 (Homo sapiens) (UniProt P53350)?
Resp: -2.99% (inactive)

Req: Could you share what max response, negative = inhibition was measured for CCc1ccc(OC2(C)CCN(CCOc3ccc(C)cc3)C2)cc1 (stereo unspecified) , tested on Serine/threonine-protein kinase PLK1 (Homo sapiens) (UniProt P53350)?
Resp: 0.495% (inactive)

* * *

Biological target: Serine/threonine-protein kinase PLK1 (Homo sapiens)
Assay: qHTS for Inhibitors of PLK1-PDB (polo-like kinase 1 - polo-box domain): Primary Screen; also: series mostly up to about 57 µM; % is scaled to controls: 0 for no effect and ±100 for the full control effect; nearly all actives have a fitted effect of over 65% in size
Settings: Plk1 PBD binding of FITC phosphopeptide, fluorescence polarization
Excerpt: The polo-like kinase 1 (Plk1) is a member of a conserved subfamily of serine / threonine protein kinases that plays a pivotal roles in cell proliferation. It has a C-terminal non-catalytic region called the polo-box domain (PBD) that plays a crucial role in the subcellular localization of the Plk1. […] This project employed a fluorescence polarization (FP) assay using a FITC-conjugated phospho-9-mer (p-9-mer) peptide and purified human Plk1 PBD protein. […]
Hit rate of the full screen: of about 360,000 compounds, about 10,000 (2.8%) were called active. Not shown: some 4% with an inconclusive outcome. The entries come from a sample that favours actives as a whole.
outcome_measure: max response, negative = inhibition (%)
# value in %; strip the unit string

These solved cases illustrate the format of a correct answer.
| compound | max response, negative = inhibition, % |
| --- | --- |
| CCCSc1nc2c(c(=O)n(C)c(=O)n2C)n1Cc1ccc(C)cc1 | -10.2 |
| CN1OC[C@@H]2CN[C@H](c3ccc(-c4ccccc4)cc3)C[C@@H]21 | 5.71 |
| FC(F)(F)Oc1ccccc1C(c1nnnn1C1CCCCC1)N1CCN(C/C=C/c2ccccc2)CC1 (stereo not given) | -10.7 |
| O=C(NNC(=S)Nc1ccccc1)c1cccc(S(=O)(=O)N2CCOCC2)c1 | 2.12 |
| CCOc1ccc(N2C(=O)CSC2=NC#N)cc1 | -14.5 |
| CSCCC(c1nnnn1Cc1ccccc1)N1CCN(C/C=C/c2ccccc2)CC1 (stereo not given) | -5.15 |
| CN1C(=O)/C(=C\c2cc(Br)cs2)c2ccccc21 | 9.61 |
| Cc1ccc(S(=O)(=O)N2CCN(S(=O)(=O)N3CCOCC3)CC2)cc1 | -4.72 |

Req: Recorded max response, negative = inhibition for O=S(=O)(c1ccc2ccccc2c1)N1CCN(S(=O)(=O)N2CCOCC2)CC1 , please?
Resp: -4

Req: Recorded max response, negative = inhibition for CN(C)CCNC(=O)c1cccc(-c2cnc3c(NC=O)cc(-c4cccc(C(F)(F)F)c4)cn23)c1 , please?
Resp: -13.6
